Give pIC50 for every item shown.
test: Antiproliferative activity against chinese hamster D4 cells expressing human folate receptor beta after 96 hrs by celltiter-blue cell viability assay in presence of folic acid; conditions: Cricetulus griseus, D4, 96 h
pIC50: −log10 of the molar value.

// returns reported pIC50 for input Nc1nc2sc(CCCCc3ccc(C(=O)N[C@@H](CCC(=O)O)C(=O)O)cc3)cc2c(=O)[nH]1
< 6.00

Returns the measured pIC50 for the input compound. Input: Nc1nc2sc(CCCCCCCc3ccc(C(=O)N[C@@H](CCC(=O)O)C(=O)O)cc3)cc2c(=O)[nH]1
< 6.00

What value of pIC50 has been recorded for this entry: Nc1nc2sc(CCCCCc3ccc(C(=O)N[C@@H](CCC(=O)O)C(=O)O)cc3)cc2c(=O)[nH]1
< 6.00

pIC50 lookup needed for Nc1nc2sc(CCCCCCc3ccc(C(=O)N[C@@H](CCC(=O)O)C(=O)O)cc3)cc2c(=O)[nH]1 , thanks.
< 6.00

Given Nc1nc2sc(CCCc3ccc(C(=O)N[C@@H](CCC(=O)O)C(=O)O)cc3)cc2c(=O)[nH]1 , state its recorded pIC50.
< 6.00

Requested read-out: pIC50. Entry: Nc1nc2sc(CCCCCCCCc3ccc(C(=O)N[C@@H](CCC(=O)O)C(=O)O)cc3)cc2c(=O)[nH]1
< 6.00

Quick one: pIC50 for Nc1nc2sc(CCc3ccc(C(=O)N[C@@H](CCC(=O)O)C(=O)O)cc3)cc2c(=O)[nH]1 ?
< 6.00

// data source = ChEMBL document CHEMBL1138482
